Here the recorded % inhibition of gametocyte viability is given for each entry.
test system: Plasmodium falciparum NF54 stage IV/V gametocytes; test: % inhibition of gametocyte viability (ATP bioluminescence); higher = more inhibition; conditions: 5 µM; 24 h

Some solved entries appear below for comparison.
Request: Fill in: % inhibition of gametocyte viability of C[C@@H](O)[C@H](N)C(=O)NS(=O)(=O)c1cccc(-c2ccc3[nH]ncc3c2)c1 is ___
Response: < 0%

Request: Moving on to CC(C)CCN1C(=O)C(C2=NS(=O)(=O)c3cc(NS(C)(=O)=O)ccc3N2)=C(O)[C@@H]2[C@H]3CC[C@H](C3)[C@@H]21
Response: < 0%

Request: Moving on to CCc1cc(Cc2cnc(N)nc2N)cc2c1N(C)CCC2C (stereo not given)
Response: < 0%

Request: Moving on to CC(=N)N1CC[C@H](SC2=C(C(=O)O)N3C(=O)[C@@H]([C@@H](C)O)[C@H]3C2)C1
Response: < 0%

Shifting focus to the compound that follows.
Request: Fill in: % inhibition of gametocyte viability of CCNC(=O)Nc1cn2c(-c3ncc(CC)cn3)cc(-c3cccnc3)cc2n1 is ___
Response: 24.5%

###

test system: Plasmodium falciparum NF54 asexual blood stage; experiment: % inhibition of asexual blood stage proliferation (pLDH); higher = more inhibition; details: 2 µM; 72 h
measurementKind: % inhibition of asexual blood stage proliferation (%)
All answers are understood in %, so give the number only.

Some solved entries appear below for comparison.
Request: Fill in: % inhibition of asexual blood stage proliferation of CC(C)(C)NC(=O)N[C@H](C(=O)N1C[C@H]2[C@@H]([C@H]1C(=O)NC(CC1CCC1)C(=O)C(N)=O)C2(C)C)C(C)(C)C (stereo not given in full) is ___
Response: 36.6

Request: Moving on to CC1(C)C[C@H]1C(=O)N/C(=C\CCCCSC[C@@H](N)C(=O)O)C(=O)O
Response: 20.8

Request: Moving on to N[C@H](CCC(=O)N[C@@H](Cc1c[nH]c2ccccc12)C(=O)O)C(=O)O
Response: 28.8

Request: Moving on to CCNC(=O)Nc1cn2c(-c3ncc(CC)cn3)cc(-c3cccnc3)cc2n1
Response: 46

***
Request: Fill in: % inhibition of asexual blood stage proliferation of COc1c(F)c(F)cc2c(=O)c(C(=O)O)cn(C3CC3)c12 is ___
Response: 20.8

###

system: Plasmodium berghei ANKA liver stage in HepG2-A16-CD81; assay: % inhibition of liver stage parasite viability (luciferase); higher = more inhibition; conditions: 5 µM; 48 h
Quick rule for you: % inhibition of liver stage parasite viability under 20% gets condition met, anything else gets condition not met.

The following molecules have reported results that may help.
Request: # check: % inhibition of liver stage parasite viability < 20% for Cc1nc(N(C)C(=O)Cc2ccc(-c3ccccn3)cc2)sc1S(N)(=O)=O
Response: condition not met

Request: Moving on to CCOC(=O)/C=C/[C@H](C[C@@H]1CCNC1=O)NC(=O)[C@@H](CC(=O)[C@@H](NC(=O)c1cc(C)on1)C(C)C)Cc1ccc(F)cc1
Response: condition met

Request: Moving on to O=C(O)COc1cccc2c1CC[C@](O)(COC(=O)N(c1ccccc1)c1ccccc1)C2
Response: condition met

Request: Moving on to CC(C)C(=O)N[C@H]1[C@H]([C@H](O)[C@H](O)CO)OC(C(=O)O)=C[C@@H]1N=[N+]=[N-]
Response: condition met

Request: Moving on to O=C(c1cc(O)nc2ccccc12)N1CCN(c2ccccc2)CC1
Response: condition not met

***
Request: # check: % inhibition of liver stage parasite viability < 20% for CCC(CC)[C@H](NC(C)=O)[C@@H]1[C@H](O)[C@@H](C(=O)O)C[C@H]1NC(=N)N
Response: condition not met

###

Here the recorded % inhibition of liver stage parasite viability is given for each entry.
test system: Plasmodium berghei ANKA liver stage in HepG2-A16-CD81; experiment: % inhibition of liver stage parasite viability (luciferase); higher = more inhibition; settings: 5 µM; 48 h
Number plus unit, in that order.

Some solved entries appear below for comparison.
Request: Which % inhibition of liver stage parasite viability is reported with Plasmodium berghei ANKA liver stage in HepG2-A16-CD81 for this entry: NC(=O)c1ccccc1NC(=O)c1ccc(C(=O)Nc2ccccc2C(N)=O)cc1 ?
Response: 42%

Request: Moving on to C[C@@H](NC(=O)c1ccccc1-c1ccccc1)B(O)O
Response: 19.8%

Shifting focus to the compound that follows.
Request: Which % inhibition of liver stage parasite viability is reported with Plasmodium berghei ANKA liver stage in HepG2-A16-CD81 for this entry: COc1ccc2c(c1OC)C(=O)OC2C1c2c(cc3c(c2OC)OCO3)CCN1C (stereo unspecified) ?
Response: 19%

###

Here the recorded % inhibition of gametocyte viability is given for each entry.
test system: Plasmodium falciparum NF54 stage IV/V gametocytes; experiment: % inhibition of gametocyte viability (luciferase reporter); higher = more inhibition; conditions: 1 µM; 48 h

Some solved entries appear below for comparison.
Request: Which % inhibition of gametocyte viability is reported with Plasmodium falciparum NF54 stage IV/V gametocytes for this entry: NC[C@H]1O[C@H](O[C@H]2[C@H](O)[C@@H](O[C@H]3O[C@H](CO)[C@@H](O)[C@H](N)[C@H]3O)[C@H](N)C[C@@H]2N)[C@H](N)C[C@@H]1O ?
Response: < 0%

Request: Moving on to COc1ccc(SCC(=O)N2c3ccccc3Sc3ccccc32)cc1
Response: < 0%

Request: Moving on to N#Cc1cc([N+](=O)[O-])ccc1Oc1ccccc1Cl
Response: < 0%

Request: Moving on to CC(C)Cn1c(=O)n(C)c(=O)c2c(-c3cncn3C)n(Cc3cccc4ccccc34)nc21
Response: 11.4%

Request: Moving on to CC(C)(C)c1ccc(C(Cn2cccc(C(F)(F)F)c2=O)NC2Cc3ccccc3C2)cc1 (centres undefined)
Response: < 0%

Request: Moving on to CCCCOC(=O)Nc1cc2nc(C3CCCCC3)[nH]c2cc1N(CC)CC
Response: < 0%

Request: Moving on to OC(Cn1cncn1)(Cn1cncn1)c1ccc(F)cc1F
Response: < 0%

Request: Moving on to O=C(NCc1cccc2ccccc12)c1cccs1
Response: < 0%

Request: Moving on to O=S(=O)(Nc1cccc2cccnc12)c1ccccc1
Response: < 0%

Request: Moving on to NC1C2CC3CC(C2)CC1C3 (centres undefined)
Response: 9.54%

***
Request: Which % inhibition of gametocyte viability is reported with Plasmodium falciparum NF54 stage IV/V gametocytes for this entry: O=c1cc(OCc2ccccc2)ccn1Cc1ccccc1 ?
Response: < 0%

Request: Moving on to O=C(NC(=O)N1CCCc2ccccc21)c1ccc(Cl)cc1Cl
Response: < 0%

Request: Moving on to CCn1cc(C(=O)O)c(=O)c2cc(F)c(N3CCNC(C)C3)c(F)c21 (centres undefined)
Response: < 0%

Request: Moving on to C/C(=N\NC(=O)C1CC1c1ccccc1)c1ccc(NC(=O)c2ccco2)cc1 (centres undefined)
Response: < 0%

Request: Moving on to CCc1cc(O)c(Oc2ccc(C(N)=O)cc2F)cc1F
Response: < 0%

Request: Moving on to Clc1ccc(Cn2c(CN3CCCC3)nc3ccccc32)cc1
Response: 1.55%

Request: Moving on to N#C/C(=C1/SC[C@H](c2ccc(Cl)cc2Cl)S1)n1ccnc1
Response: < 0%

Request: Moving on to O=C(NCc1ccccc1Cl)c1cnc2ccccc2n1
Response: < 0%

Request: Moving on to COc1cc(C2C3=C(CC(C)(C)CC3=O)Nc3ccccc3N2C(C)=O)ccc1OCc1ccccc1 (centres undefined)
Response: < 0%

Request: Moving on to C[C@@H](c1nc(-c2ccc(C#N)cc2)cs1)[C@](O)(Cn1cncn1)c1ccc(F)cc1F
Response: < 0%

Request: Moving on to Cc1ccc(C)c(OCCCCCCN2C[C@H](O)[C@@H](O)[C@H](O)[C@H]2CO)c1
Response: 5.24%

Request: Moving on to CCNC(=O)Nc1cc2c(-c3ccnc(C)c3)ccc(CNC(=O)OC)c2cn1
Response: < 0%

Request: Moving on to O=c1cc(Nc2ccc3ccccc3c2)[nH]c(=O)[nH]1
Response: < 0%

Request: Moving on to COc1cc(C(C(=O)NC2CCCCC2)N(C(=O)Cc2c[nH]c3ccccc23)c2ccc(C(C)C)cc2)cc(OC)c1OC (centres undefined)
Response: 1.84%

###

Here the recorded % viability of CHO cells is given for each entry.
system: CHO; experiment: % viability of CHO cells (MTT); higher = less toxic; conditions: 2 µM; 48 h
All answers are understood in %, so give the number only.

Request: Fill in: % viability of CHO cells of CC1CN(c2ncnc3c2c(-c2ccccc2)cn3-c2ccc(F)cc2)CC(C)O1 (centres undefined) is ___
Response: 82.6

Request: Moving on to CN(C(=O)C1(c2ccc(Cl)cc2)CCC1)c1ccccc1
Response: 105

Request: Moving on to Cc1ccc(S(=O)(=O)Nc2cccc3cccnc23)cc1
Response: 76

Request: Moving on to N=C(N)NCCCCC(=O)Nc1cc(C(F)(F)F)cc(NC(=O)c2cc(C(=O)Nc3cc(C(F)(F)F)cc(NC(=O)CCCCNC(=N)N)c3O[C@@H]3CCNC3)ncn2)c1O[C@@H]1CCNC1
Response: 120

Request: Moving on to Nc1nc(N)c2c(Sc3ccccc3)cccc2n1
Response: 107

Request: Moving on to COc1ccc(CNC(=O)C2CCN([C@H](C)c3cccc4ccccc34)CC2)cc1
Response: 128

Request: Moving on to Cc1cc(C)n2nc(C(=O)NS(=O)(=O)c3c(C)cccc3OC(F)(F)F)nc2n1
Response: 110

Request: Moving on to O=c1[nH]c(=O)n(Cc2cccc(Oc3ccccc3)c2)cc1Nc1ccccc1
Response: 116

Shifting focus to the molecule that follows.
Request: Fill in: % viability of CHO cells of CCCCCOc1ccc(/C=C2\Oc3c(ccc(O)c3O)C2=O)c(O)c1 is ___
Response: 123
